The molecules listed here are annotated with their Ionization.
# assay comment: % ionization at the pH 7.4 at 37 degree Centigrade
# Type: ADME
Express your answer in %, writing the number without its unit.

The cases that follow already have their Ionization on record.
CCC(C)N1CCN(c2cccc(Cl)c2)CC1 (centres undefined) :: 21.6
CC(C)N1CCN(c2cccc(Cl)c2)CC1 :: 64
CCCN1CCN(c2cccc(Cl)c2)CC1 :: 31.9
OCCN1CCN(c2cccc(Cl)c2)CC1 :: 24.9
CN1CCN(c2cccc(Cl)c2)CC1 :: 88.1

QUERY: Entry Clc1cccc(N2CCNCC2)c1 needs its Ionization filled in; supply it.
RESULT: 91.3

QUERY: Entry CCCCCN1CCN(c2cccc(Cl)c2)CC1 needs its Ionization filled in; supply it.
RESULT: 5.1

QUERY: Entry CCCCN1CCN(c2cccc(Cl)c2)CC1 needs its Ionization filled in; supply it.
RESULT: 16.6

QUERY: Entry CCN1CCN(c2cccc(Cl)c2)CC1 needs its Ionization filled in; supply it.
RESULT: 75.5

QUERY: Entry CCCCCCN1CCN(c2cccc(Cl)c2)CC1 needs its Ionization filled in; supply it.
RESULT: 1.2

QUERY: Entry CC1(C)CC(=O)N(CCCCN2CCN(c3ncccn3)CC2)C(=O)C1 [GEPIRONE] needs its Ionization filled in; supply it.
RESULT: 63.5

QUERY: Entry C=CCN1CCN(c2cccc(Cl)c2)CC1 needs its Ionization filled in; supply it.
RESULT: 32.4

QUERY: Entry Clc1cccc(N2CCN(Cc3ccccc3)CC2)c1 needs its Ionization filled in; supply it.
RESULT: 0.1

QUERY: Entry O=C1c2ccccc2S(=O)(=O)N1CCCCN1CCN(c2ncccn2)CC1 needs its Ionization filled in; supply it.
RESULT: 0.7

Reference source: ChEMBL document CHEMBL1126240
